- tgt: rat CB2 receptors (Rattus norvegicus)
- Construct: expressed in transfected cells; host or cells: HEK293
- Sequence (Q9QZN9 whole entry): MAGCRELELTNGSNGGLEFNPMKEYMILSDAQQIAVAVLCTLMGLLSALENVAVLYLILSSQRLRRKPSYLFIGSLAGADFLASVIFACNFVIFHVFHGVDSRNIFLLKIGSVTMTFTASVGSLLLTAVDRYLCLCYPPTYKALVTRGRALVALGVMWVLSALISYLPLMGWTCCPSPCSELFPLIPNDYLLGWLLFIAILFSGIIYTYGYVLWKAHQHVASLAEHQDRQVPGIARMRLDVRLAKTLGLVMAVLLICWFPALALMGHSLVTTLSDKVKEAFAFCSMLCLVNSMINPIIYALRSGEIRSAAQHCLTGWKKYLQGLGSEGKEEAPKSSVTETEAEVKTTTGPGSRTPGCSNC
- assay.name: Rat CB2 radioligand binding assay ([3H]CP-55,940 competition)
pKi: −log10 of the molar value.
readout.type: pKi

INSERT INTO measurements (sample_smiles, reported_result) VALUES
  ('COCCOc1ccc(Br)cc1C(=O)/N=c1\cc(C(C)(C)C)n(C)n1C[C@H]1CCCO1', 7.16),
  ('COc1ccc(C(F)(F)F)cc1C(=O)/N=c1\oc(C(C)(C)C)cn1C[C@H]1CCCO1', 9.10),
  ('Cn1c(C(C)(C)C)c/c(=N\C(=O)c2cc(C(F)(F)F)ccc2CCC(C)(C)O)n1C[C@H]1CCCO1', 7.47),
  ('Cn1c(C(C)(C)C)c/c(=N\C(=O)c2cc(C(F)(F)F)ccc2OCCC(C)(C)F)n1C[C@H]1CCCO1', 8.00);
